conditions: buffer; pH 7.4; 200.0 µM
ENDPOINT NAME: solubility kinetic (µg/mL)
Numbers only, in µg/mL.

- MOLECULE: "O=C(CC1CCCCC1)NCc1ccccc1"
  solubility kinetic, µg/mL: 30.5
- MOLECULE: "O=C(c1cc(Cl)ccc1Cl)N1CCc2ccccc21"
  solubility kinetic, µg/mL: 12.1
- MOLECULE: "COc1ccc(CCNC(=O)Nc2ccc(F)cc2F)cc1OC"
  solubility kinetic, µg/mL: 1.6
- MOLECULE: "O=C1NC(Cc2ccccc2)C(=O)Nc2ccc(Br)cc21 (configuration not stated)"
  solubility kinetic, µg/mL: 15.7
- MOLECULE: "Cc1cccc(NC(=S)N(CCN(C)C)Cc2cccs2)c1"
  solubility kinetic, µg/mL: 46.7
- MOLECULE: "CC(=O)Nc1ccc(NC(=O)COC(=O)C2CCC(C(C)(C)C)CC2)cc1 (configuration not stated)"
  solubility kinetic, µg/mL: 3.7

Could you now look at the following molecule, please?
-- ask Write down solubility kinetic measured for item `CCc1nc2ccccc2c(C(=O)OCC(=O)Nc2ccc(NC(C)=O)cc2)c1C`
-- reply 12.1

* * *

For each entry below, report its solubility kinetic value.
details: buffer; pH 7.4; 200.0 µM
Give bare numbers, in µg/mL.

- COMPOUND: "Cc1cccc(C(=O)Nc2ccc(NC(=O)c3ccccc3)cc2)c1"
  solubility kinetic (µg/mL): 1
- COMPOUND: "CCOc1ccc2oc(=O)cc(CN3CCOCC3)c2c1"
  solubility kinetic (µg/mL): 41.5
- COMPOUND: "CC1CCCCN1C(=O)c1cc(-c2ccc3c(c2)OCO3)on1 (configuration not stated)"
  solubility kinetic (µg/mL): 39.9
- COMPOUND: "O=C(Cc1ccc(Br)cc1)Nc1ccccc1N1CCCC1"
  solubility kinetic (µg/mL): 2.6
- COMPOUND: "COc1ccccc1-n1cnc2cc(NCc3ccccc3O)ccc21"
  solubility kinetic (µg/mL): 12.6
- COMPOUND: "CCOC(=O)C1CCN(Cc2ccc(-c3ccccc3)cc2)CC1"
  solubility kinetic (µg/mL): 25.6

Could you now look at the following compound, please?
-- ask Write down solubility kinetic measured for item `CCc1noc(C)c1C(=O)OCC(=O)NC(=O)c1ccccc1OC`
-- reply 18.6

* * *

settings: buffer; pH 7.4; 200.0 µM
For each entry below, report its solubility kinetic value.

Examples with their reported solubility kinetic follow.
- COMPOUND: "NC(=O)C1CCN(C(=O)CCC(=O)c2ccc(F)cc2)CC1"
  ASSAY RESULT: "> 46 µg/mL"
- COMPOUND: "CN1CN(c2cccc([N+](=O)[O-])c2)CN=C1N[N+](=O)[O-]"
  ASSAY RESULT: "> 42 µg/mL"
- COMPOUND: "COc1ccc(C(=O)COC(=O)c2ccc(N(C)C)cc2)cc1"
  ASSAY RESULT: "< 0.7 µg/mL"
- COMPOUND: "Cl.c1ccc2c(c1)CC(N1CCCCC1)c1ccccc1S2 (stereo unspecified)"
  ASSAY RESULT: "1.8 µg/mL"
- COMPOUND: "CCOc1ccc(-c2csc(NC(=O)c3ccco3)n2)cc1"
  ASSAY RESULT: "2.6 µg/mL"

Could you now look at the following compound, please?
-- ask Write down solubility kinetic measured for item `CC(C)(C)NC(=O)/C(=C/c1cccnc1)NC(=O)c1ccco1`
-- reply > 47 µg/mL

* * *

conditions: buffer; pH 7.4; 200.0 µM
ENDPOINT NAME: solubility kinetic (µg/mL)
Numbers only, in µg/mL.

Examples with their reported solubility kinetic follow.
- MOLECULE: "CC(=O)N1c2ccccc2C(CBr)=CC1(C)C"
  UNIT ABBREV: "µg/mL"
  solubility kinetic: 31.8
- MOLECULE: "Cc1ccc(C(O)c2ccc(-n3ccnc3)cc2)cc1 (stereo unspecified)"
  UNIT ABBREV: "µg/mL"
  solubility kinetic: 39.5
- MOLECULE: "CCN(CC)CCOCCOC(=O)C(CC)(CC)c1ccccc1"
  UNIT ABBREV: "µg/mL"
  solubility kinetic: 47.7
- MOLECULE: "COc1ccc(C2(C#N)CCC(=O)N2c2ccccc2)cc1 (stereo unspecified)"
  UNIT ABBREV: "µg/mL"
  solubility kinetic: 40.9
- MOLECULE: "CSc1ccccc1NC(=O)c1cc(Cl)sc1Cl"
  UNIT ABBREV: "µg/mL"
  solubility kinetic: 1.4
- MOLECULE: "Cc1noc(C)c1-c1nc(CS(=O)(=O)c2ccc(Cl)cc2)no1"
  UNIT ABBREV: "µg/mL"
  solubility kinetic: 3.8
- MOLECULE: "Oc1cccc(C(=S)N2CCC(Cc3ccccc3)CC2)c1"
  UNIT ABBREV: "µg/mL"
  solubility kinetic: 15
- MOLECULE: "Fc1ccc2nc(Nc3ccccc3)sc2c1"
  UNIT ABBREV: "µg/mL"
  solubility kinetic: 0.5
- MOLECULE: "COc1cccc(NC(=O)N2CCCC2C(=O)NCc2ccco2)c1 (stereo unspecified)"
  UNIT ABBREV: "µg/mL"
  solubility kinetic: 47.6
- MOLECULE: "O=C(Nc1nc2ccccc2[nH]1)c1ccccc1O"
  UNIT ABBREV: "µg/mL"
  solubility kinetic: 0.2

Return reported solubility kinetic values for all items listed beneath this line.
1. Cc1ccc(C(=O)O/N=C(\N)Cc2cccs2)cc1[N+](=O)[O-]
2. c1ccc(-c2noc(CN3CCc4sccc4C3)n2)cc1
3. Cc1cc(OCC(=O)N(C)C2CCCCC2)ccc1Cl
4. COc1ccc(NCC(=O)N2CCCC2)cc1Cl

-- reply
[39.9, 13.4, 35.5, 38]

Return reported solubility kinetic values for all items listed beneath this line.
1. Cn1c(=O)n(C)c2cc(NC(=O)COc3ccc(F)cc3F)ccc21
2. CCn1c(=O)c2cc(C(=O)NCCN(C)C)sc2c2ccccc21
3. CCc1ccc(S(=O)(=O)NCc2cccs2)cc1
4. COc1ccc(N2CCN(C(=S)Nc3ccccc3)CC2)cc1
5. COc1ccccc1CNC(=O)c1cc2ccccc2o1

-- reply
47.2
51.5
35.6
1.3
10.1

Return reported solubility kinetic values for all items listed beneath this line.
1. CCCCN(c1ccccc1)S(=O)(=O)c1cccc2cccnc12
2. O=C(CNC(=O)c1cnccc1C(F)(F)F)c1cccc(Cl)c1
3. CC(CCN1CCN(c2ccccn2)CC1)c1ccccc1 (stereo unspecified)
4. O=C(/C=C/c1ccc([N+](=O)[O-])cc1)OCc1cnc(-c2ccccc2)o1
5. COc1ccccc1NC(=O)COc1ccc2ccccc2c1
6. CCOc1ccc(S(=O)(=O)NCc2ccc3c(c2)OCO3)cc1
7. CCN(c1ccccc1)S(=O)(=O)c1ccc(OC)c(NC(=O)c2cc(F)c(F)c(F)c2F)c1

-- reply
[9, 25.3, 31, 6.8, 2.5, 10.9, 0.7]

* * *

conditions: buffer; pH 7.4; 200.0 µM
ENDPOINT NAME: log10(solubility kinetic) (log10 of the value in µg/mL)
All values: base-10 log of solubility kinetic in µg/mL.

- MOLECULE: "COc1cccc(CC(=O)Nc2ccc3c(c2)CCC3)c1"
  log10(solubility kinetic): 0.92
- MOLECULE: "COCCNC(=O)Cc1c(C)c2c(cc(C)c3c(C(C)(C)C)coc32)oc1=O"
  log10(solubility kinetic): 0.51
- MOLECULE: "CCOC(=O)CNC(=O)C12CC3CC(CC(C3)C1)C2"
  log10(solubility kinetic): 1.58
- MOLECULE: "CCN(C(=O)COC(=O)/C(C#N)=C/c1ccc(N(C)C)cc1)C1CCS(=O)(=O)C1 (centres undefined)"
  log10(solubility kinetic): 0.68
- MOLECULE: "CC(C)c1nc(Cl)c(C#N)c2c1COC(C)(C)C2"
  log10(solubility kinetic): 0.82

Return reported log10(solubility kinetic) values for all items listed beneath this line.
1. Cc1cc(C)nc(SCC(=O)N2CCc3ccccc32)n1
2. COc1cc([N+](=O)[O-])ccc1Nc1nc(C)cc(C)n1.Cl
3. Cc1ccc2[nH]c3c(NCc4ccccc4)ncnc3c2c1
4. CCNc1nc(=S)nc(NCc2ccccc2)[nH]1
5. CC(=O)c1cccc(Nc2nc(-c3sc(C)nc3C)cs2)c1

-- reply
1: 0.53; 2: -0.30; 3: 0.64; 4: 0.66; 5: 0.00

Return reported log10(solubility kinetic) values for all items listed beneath this line.
1. CCCOc1ccc(C(=O)Nc2cccnc2)cc1
2. Cc1ccc(N2C(=O)N(CC(=O)Nc3ccc([N+](=O)[O-])cc3)C(=O)C2C)cc1 (centres undefined)
3. COc1ccc2oc(=N)c(C(=O)Nc3ccccc3Cl)cc2c1
4. COc1ccc(Cl)cc1S(=O)(=O)Nc1noc2ccccc12
5. O=[N+]([O-])c1ccc(CSc2nc3ncc(Br)cc3[nH]2)cc1
6. COc1ccc(Cc2noc(-c3ccc([N+](=O)[O-])cc3)n2)cc1OC
7. O=[N+]([O-])c1ccc(NCc2ccccc2N2CCC(CO)CC2)nc1

-- reply
1. 1.56
2. 0.78
3. -0.10
4. 1.67
5. 0.11
6. 0.30
7. 1.09

Return reported log10(solubility kinetic) values for all items listed beneath this line.
1. Cc1nonc1CC(=O)N1CCCC(C(=O)c2ccc(Cl)cc2)C1 (centres undefined)
2. Nc1ncc([N+](=O)[O-])cc1S(=O)(=O)c1ccccc1
3. COc1ccc(S(=O)(=O)N2CCCc3ccccc32)cc1[N+](=O)[O-]

-- reply
1.68
0.58
0.99

Return reported log10(solubility kinetic) values for all items listed beneath this line.
1. Cc1ccccc1NC(=O)C(NC1CCCCC1)C(C)C (centres undefined)
2. COc1ccc(N2CCN(CC(=O)NCc3ccc(Cl)cc3)CC2)cc1
3. Cc1ccc(-c2nc3ncccc3o2)cc1NC(=O)c1ccc([N+](=O)[O-])o1

-- reply
1. 0.83
2. 0.34
3. 0.23
